# measured_on: BRD4 bromodomain domain I [BRD4(1)] (Homo sapiens)
# Construct: BRD4 bromodomain domain I [BRD4(1)]; purchased Cayman Chemicals
# test_summary: BRD4 bromodomain domain 1 inhibition assay (TR-FRET)
# Format: binding
pIC50: −log10 of the molar value.
assay_metric: pIC50

Here is how some compounds turned out for pIC50.
molecule | measured_on | pIC50
CCOc1cc(C(=O)N2CCN(C3CCN(C)CC3)CC2)ccc1Nc1cc2c(cn1)N(C)C(=O)c1c(F)ccc(F)c1O2 | BRD4 bromodomain domain I [BRD4(1)] (Homo sapiens) | > 5.70
CN1C(=O)c2ccccc2S(=O)(=O)c2cc(N[C@H]3CC[C@H](O)CC3)ncc21 | BRD4 bromodomain domain I [BRD4(1)] (Homo sapiens) | < 5.30
CN1C(=O)c2cccc(F)c2N(C)c2cc(N[C@H]3CC[C@H](O)CC3)ncc21 | BRD4 bromodomain domain I [BRD4(1)] (Homo sapiens) | < 5.30
CN1C(=O)c2ccccc2N(C)c2cc(N[C@H]3CC[C@H](NS(N)(=O)=O)CC3)ncc21 | BRD4 bromodomain domain I [BRD4(1)] (Homo sapiens) | 5.30 to 5.70
CN1C(=O)c2c(F)cccc2Oc2cc(N[C@H]3CC[C@H](O)CC3)ncc21 | BRD4 bromodomain domain I [BRD4(1)] (Homo sapiens) | > 5.70

Record pIC50 for all entries; do not skip any.
1. CCOc1cc(C(=O)N2CCN(C3CCN(C)CC3)CC2)ccc1Nc1cc2c(cn1)N(C)C(=O)c1cccc(F)c1O2
2. CCOc1cc(C(=O)N2CCN(C3CCN(C)CC3)CC2)ccc1Nc1cc2c(cn1)N(C)C(=O)c1cccc(OC)c1O2
3. CCO[C@H]1CC[C@H](Nc2cc3c(cn2)N(C)C(=O)c2ccccc2N3C)CC1
4. CCOc1cc(C(=O)N2CCN(C3CCN(C)CC3)CC2)ccc1Nc1cc2c(cn1)N(C)C(=O)c1c(F)cccc1N2C
5. CCOc1cc(C(=O)N2CCN(C3CCN(C)CC3)CC2)ccc1Nc1cc2c(cn1)N(C)C(=O)c1cccc(C)c1O2

1: < 5.30; 2: > 5.70; 3: < 5.30; 4: > 5.70; 5: > 5.70

Here are 3 compounds. What values of pIC50 were reported for them?
1. C[C@H]1C[C@H](Nc2cc3c(cn2)N(C)C(=O)c2ccccc2N3C)CC[C@H]1O
2. CN1C(=O)c2cccc(Cl)c2Oc2cc(N[C@H]3CC[C@H](O)CC3)ncc21
3. CN1C(=O)c2c(F)cccc2N(C)c2cc(N[C@H]3CC[C@H](O)CC3)ncc21

1: < 5.30; 2: < 5.30; 3: > 5.70

Answer for every listed entry: what is its pIC50? The entries follow.
1. CCOc1cc(C(=O)N2CCN(C3CCN(C)CC3)CC2)ccc1Nc1cc2c(cn1)N(C)C(=O)c1cccc(Cl)c1O2
2. Cc1cccc2c1Oc1cc(N[C@H]3CC[C@H](O)CC3)ncc1N(C)C2=O

1. 5.30 to 5.70
2. 5.30 to 5.70

---

# measured_on: ATAD2A (Homo sapiens, UniProt Q6PL18)
# Construct: T7 phage strains displaying bromodomains were grown in parallel
# Sequence (Q6PL18 980-1092 limits assumed): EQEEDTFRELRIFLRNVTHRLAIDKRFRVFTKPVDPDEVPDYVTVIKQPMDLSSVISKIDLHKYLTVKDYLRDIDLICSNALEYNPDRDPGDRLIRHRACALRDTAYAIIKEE
# test_summary: Bromodomain binding assay: ATAD2A
assay_metric: Kd

molecule | value_measured
CCOc1cc(C(=O)N2CCC(N3CCCC3)CC2)ccc1Nc1cc2c(cn1)N(C)C(=O)c1ccccc1N2C | > 20 µM

Next up:
Please look up its Kd: CCOc1cc(C(=O)N[C@H]2CC[C@H](O)CC2)ccc1Nc1cc2c(cn1)N(C)C(=O)c1ccccc1N2C
> 20 µM
